These entries and their values trace back to patent US20250026723A1.

- Target Or System: cannabinoid receptor 1 (CB1R) (Homo sapiens (Human), UniProt P21554)
- Assay Notes: CB1R binding affinity (inhibition constant Ki)
- Run Conditions: read-out: CB1R Ki
// reported Ki per item
Observable: Ki (nM)

INSERT INTO results (compound, observable, observed_measurement) VALUES
  ('COC(=O)C(C)C[Se]C(=NS(=O)(=O)c1ccc(Cl)cc1)N1CC(c2ccccc2)C(c2ccc(Cl)cc2)=N1 (stereo not shown)', 'Ki', 12.1),
  ('NC(=O)C[Se]C(=NS(=O)(=O)c1ccc(C(F)(F)F)cc1)N1CC(c2ccccc2)C(c2ccc(Cl)cc2)=N1 (stereo not shown)', 'Ki', 14.4),
  ('N#CCCCSC(=NS(=O)(=O)c1ccc(C(F)(F)F)cc1)N1CC(c2ccccc2)C(c2ccc(Cl)cc2)=N1 (stereo not shown)', 'Ki', 3.4),
  ('NC(=O)CSC(=NS(=O)(=O)c1ccc(C(F)(F)F)cc1)N1CC(c2ccccc2)C(c2ccc(Cl)cc2)=N1 (stereo not shown)', 'Ki', 21.2),
  ('COCCSC(=NS(=O)(=O)c1ccc(C(F)(F)F)cc1)N1CC(c2ccccc2)C(c2ccc(Cl)cc2)=N1 (stereo not shown)', 'Ki', 6.9),
  ('CSC(=NS(=O)(=O)c1ccc(C(F)(F)F)cc1)N1CC(c2ccccc2)C(c2ccc(Cl)cc2)=N1 (stereo not shown)', 'Ki', 16.6),
  ('C[Se]C(=NS(=O)(=O)c1ccc(C(F)(F)F)cc1)N1CC(c2ccccc2)C(c2ccc(Cl)cc2)=N1 (stereo not shown)', 'Ki', 3.3);
